Just for reference, patent US20250304644A1 is where these values come from.

- target-or-test-system: human GLP-1R (glucagon-like peptide-1 receptor) (human, UniProt P43220 24-463)
- procedure-summary: cell-based or functional assay
*1 amine or outer side, *2 acyl side, *3 side chain or, on linkers, in order; H or OH if unused. Where no end group is shown, it is not given here. Side-chain parts run from the residue outwards. [ ]: non-standard residue; d: D form. The star is where a group is joined. C18 diacid = O=C(O)CCCCCCCCCCCCCCCCC(=O)*; γGlu = O=C(O)[C@H](CCC(=O)[*:2])N[*:1]; AEEA = NCCOCCOCC(=O)O; Aib = CC(C)(N)C(=O)O
Assign class by logEC50 GLP-1R: not lower than 10 means MET; lower than 10 means NOT MET.

// known answers, use as guide
• HADGTFTSDYSTILDKLAARDFINWLIQTKGKKNDWK([AEEA-AEEA-γGlu-C18 diacid])HNITQ-OH [Compound 25] = MET
• HADGTFTSDYSIILDK([AEEA-AEEA-γGlu-C18 diacid])LAARDFINWLIQTKGKKNDWKHNITQ-OH [Compound 20] = MET
• HADGTFTSDYSTILDK([AEEA-AEEA-γGlu-C18 diacid])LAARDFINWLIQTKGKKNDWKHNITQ-OH [Compound 21] = MET
• HADGTFTSDYST[Aib]LDKLAARDFINWLIQTKGKKNDWKHNITQK([AEEA-AEEA-γGlu-C18 diacid])-OH [Compound 27] = MET
• HADGTFTSDYSTILDKK([AEEA-AEEA-γGlu-C18 diacid])AARDFINWLIQTKGKKNDWKHNITQ-OH [Compound 23] = MET

Query: Record HADGTFTSDYSTILDKLAARDFINWLIQTKGKKNDWKHNITQK([AEEA-AEEA-γGlu-C18 diacid])-OH [Compound 26] ; criterion: logEC50 GLP-1R no lower than 10. Met?
Result: MET

Query: Hi team, for H[Aib]DGTFISDYSTILDALAARDFINWLIQTKITK([AEEA-AEEA-γGlu-C18 diacid])-OH [Compound 28] , is the recorded logEC50 GLP-1R at or above 10?
Result: NOT MET
